Taken from the supplement of paper PMC9170038.

Kindly supply the reported apparent KD of K4 kissing-loop reporter values for the records listed here.
System: K4 kissing-loop RNA reporter;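 also: bound reporter read as fluorescence of individual clusters on recovered sequencing chips by microscopy, with normalized cluster intensities fitted with a binding model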
Assay: apparent KD of K4 kissing-loop reporter; higher = weaker reporter binding
Settings: Eterna round: R107; input ligand: theophylline 20 uM
Output should be the measured figure followed by the unit it is expressed in.

Below, each entry is followed by its recorded apparent KD of K4 kissing-loop reporter result.
| Sequence string | Assay value |
| --- | --- |
| GUGUGGAUCCGAAGGAGCGUCCGCAAUCCAGUGAUGUUGGGUGUUGGUUUUAGUAGACGAGGACAGGUAGGUCGCGGAUUUACAA [Same State Arginie B GF 23] | 110 nM |
| CGAUACGGAAAUACGUGUCUCUAUUCAGAAGGAGCGUGGUAGUACACAGGUAGGUCGCUGAAAUUUAAACUAGUGAUGUUAGACU [JR_SSArginiA_Sub004] | 884 nM |
| UGCUUAGUGAUGUUUGAUUUGGUGCAUGCAGAGGAUAUAGGGUGCUUUAGAAGGCUGAGGAGUGCGCCGAGUGAUGUUCGGCGCU [Exclusion FMN A GF11] | 182 nM |

// batch mode: one apparent KD of K4 kissing-loop reporter value per listed entry
1. CGCGCGCGUUGAGAGGUGCGCGCGAAUGAUACCAGUAUAUAAGAAUACCCUUGGCAGCAUAAGAAAGAUAUAGUGAUGUUGUAUA [SSTheophA.F]
2. GAGUGGCAGACGGCCGCCACUCUUAGCAGCCAGCGGAGUGAUGUUCCGCCCGAGUGAUGUUCGGAGAGGACCGGGUUUGUUGUAA [Exclusion Tryptophan B GF 29]
3. AUCUAGAUGCGAAGGAGCGCCUCAACGCGCUAUCUAUGGAGUGAUGUUCCAACGUAUGAGAGGCAGGUAGGUCGCGCAUCUAGAA [Arg B Ex t1]
4. AGAACUGUCUGAGAUACCAGCCAUAGGAGUGAUGUUCCUAGCUCCACAAAGUGGAGCCAUGGCCCUUGGCAGCUCAGACAGUUCA [Omei KL Theo B SS A v8]
5. CUUAAGGAGUGUCGUGCCGGACACUGGGAAGGAGCGCAAUUCUUUGCAGGUAGGUCGCCCAGUGAUGUUGGGUGGCGCUGUCGAA [Laatonbi]
6. CUAACGGUACGAGUGAUGUUCAGCAAGGAUACCAGCGGACAGUCACGCCCUUGGCAGCCUAGUUUCUACCCGUCGGAAUUUCUUA [theeternabot_sameState_KL_Theo_A_2]
7. GGCCGGAAGGCGAGCGCUCCCACUCCGGAAGGAGCGCCCGCAAGGGCAGGUAGGUCGCCGGAGUGAUGUUCCGGUGGAGGGCUCG [#2 Exclusion - Arginine A Attempt #20 (Inspired by Omei)]

A:
308 nM
149 nM
117 nM
133 nM
156 nM
461 nM
8.89 nM
